The measurements presented in this section are drawn from ChEMBL document CHEMBL5126585.

Assay: Therapeutic index, ratio of CC50 for cytotoxicity against IL2 independent FL-4 cells to EC50 for antiviral activity against Feline immunodeficiency virus infected in IL2 independent FL-4 cells
Type: toxicity, cell-based
Conditions: cat; read-out: Ratio CC50/EC50

- SMILES RECORD: "Clc1nss/c1=N\\c1ccc(Oc2ccccc2)cc1"
  selectivity ratio: "> 2.9"
- SMILES RECORD: "Fc1ccc(/N=c2\\ssnc2Cl)cc1"
  selectivity ratio: "> 100"
- SMILES RECORD: "FC(F)(F)c1ccc(/N=c2\\ssnc2Cl)cc1"
  selectivity ratio: "> 6.7"
- SMILES RECORD: "Clc1nss/c1=N\\c1ccc(Br)cc1"
  selectivity ratio: "> 160"
